# Target entity: T1, human TGFβ3, mature dimeric form (human, UniProt P10600 301-412)
# T1 sequence: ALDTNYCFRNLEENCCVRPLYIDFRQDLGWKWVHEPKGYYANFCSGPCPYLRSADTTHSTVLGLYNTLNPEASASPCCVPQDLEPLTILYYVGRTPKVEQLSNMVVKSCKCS
# Experiment description: cell-based or functional assay
Recorded endpoint: HEKBlue TGFβ blocking IC50
Record the result as a number with its unit.

4A11 (antibody, V domains shown, anti-TGFβ2/3, recombinant rabbit monoclonal; some paragraphs print the H/L pair as 32/33; also called Rb1.4A11; Rbt 4A11) VH: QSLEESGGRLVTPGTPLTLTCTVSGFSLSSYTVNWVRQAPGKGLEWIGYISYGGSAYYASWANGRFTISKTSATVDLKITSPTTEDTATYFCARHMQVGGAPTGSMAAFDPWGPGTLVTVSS VL: AAVLTQTPSPVSAAVGGTVSISCQSSQSVYNNNYLSWFQQKPGQPPKLLIYGASTLTSGVPSRFKGSGSGTQFTLTISDVQCDDAATYYCAGGYSGSSDKYAFGGGTEVVVKG = 0.06 nM

Alright, here's another binder for you.
Data request: Note HEKBlue TGFβ blocking IC50 for the binder shown: h4A11.v7.19 (antibody, human IgG1, kappa, N297G, V domains shown) VH: EVQLQESGPGLVKPSETLSLTCTVTGFSLSSYTVNWIRQPAGKGLEWIGYISYGGSAYYASWANGRVTISKDTSQVSLKLSSVTAADTAVYFCARHMQVGGAPTGSMAAFDPWGQGTLVTVSS VL: EIVLTQSPGTLSLSPGERATLSCQSSQSVYNNNYLSWFQQKPGQAPRLLIYGASTLTSGIPDRFSGSGSGTDFTLTISRLEPEDFAVYYCAGGYSGSSDKYAFGGGTKVEIKR
Data returned: 0.09 nM
